# measured_on: mouse GnRH receptor (Mus musculus)
# Construct: expressed in transfected cells; host or cells: 293 cells
# Sequence (Q01776 1-327): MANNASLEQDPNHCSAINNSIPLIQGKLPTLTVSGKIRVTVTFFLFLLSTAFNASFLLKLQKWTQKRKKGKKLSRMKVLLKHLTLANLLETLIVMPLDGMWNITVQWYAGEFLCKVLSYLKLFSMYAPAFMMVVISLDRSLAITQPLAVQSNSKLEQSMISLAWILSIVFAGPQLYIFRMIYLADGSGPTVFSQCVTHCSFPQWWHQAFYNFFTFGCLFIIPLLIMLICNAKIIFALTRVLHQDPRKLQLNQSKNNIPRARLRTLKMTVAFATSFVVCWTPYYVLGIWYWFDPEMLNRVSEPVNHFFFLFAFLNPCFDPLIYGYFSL
# protocol: Radioligand binding, 125I-GnRH-A, 293 cells expressing mouse GnRH receptors
# condition_context: 10 uM; read-out: % Inhib. @ 10 uM mGnRH
# Experimental: All compounds were diluted in 1% DMSO (final assay concentration) in binding assay buffer. […] Reactions were terminated by rapid filtration onto 96-well Packard GF/C filters soaked in 0.1% polyethyleneimine. Filters were washed three times with PBS buffer, dried and counted on a Packard Topcount by liquid scintillation counting. […] The reaction mixture was vortexed and incubated for 1 min at room temperature. […] Fractions were assessed for biological activity by radioligand binding.
Measured inhibition at 10 µM, listed per entry for reference.
attribute_measured: inhibition at 10 µM

>  <molecule>
COC(=O)C1CN(C(=O)c2ccc(Cc3cc4c(cc3C)C(C)(C)CCC4(C)C)o2)CC(C)C1=O (stereo not shown)

>  <measured_on>
mouse GnRH receptor (Mus musculus)

>  <val>
26%

$$$$
>  <molecule>
CCN(CC)CCCC(C)N(Cc1ccc(F)cc1)C(=O)c1ccc(Cc2cc3c(cc2C)C(C)(C)CCC3(C)C)o1 (stereo not shown)

>  <measured_on>
mouse GnRH receptor (Mus musculus)

>  <val>
102%

$$$$
>  <molecule>
CCc1ccc(CN(CCCO)C(=O)c2ccc(Cc3cc4c(cc3C)C(C)(C)CCC4(C)C)o2)cc1

>  <measured_on>
mouse GnRH receptor (Mus musculus)

>  <val>
88%

$$$$
>  <molecule>
Cc1cc2c(cc1Cc1ccc(C(=O)N3CCC(CCCC4CCN(CCO)CC4)CC3)o1)C(C)(C)CCC2(C)C [drawing 1427]

>  <measured_on>
mouse GnRH receptor (Mus musculus)

>  <val>
104%

$$$$
>  <molecule>
Cc1cc2c(cc1Cc1ccc(C(=O)N3CCC(O)(c4ccc(Br)cc4)CC3)o1)C(C)(C)CCC2(C)C [drawing 1512]

>  <measured_on>
mouse GnRH receptor (Mus musculus)

>  <val>
49%

$$$$
>  <molecule>
COc1cc2c(cc1OC)CN(C(=O)c1ccc(Cc3cc4c(cc3C)C(C)(C)CCC4(C)C)o1)CC2 [drawing 1253]

>  <measured_on>
mouse GnRH receptor (Mus musculus)

>  <val>
46%

$$$$
>  <molecule>
COc1ccccc1CN(C(=O)c1ccc(Cc2cc3c(cc2C)C(C)(C)CCC3(C)C)o1)C1CCN(Cc2ccccc2)C1 (stereo not shown) [drawing 1558]

>  <measured_on>
mouse GnRH receptor (Mus musculus)

>  <val>
91%

$$$$

###

# protocol: Metabolism rate, pmol/min/mg at 1 μM, rat female
# Assay type: in vitro ADME
# condition_context: 1 μM compound
Each entry below carries its recorded Rat female pmol/min/mg 1 μM.

>  <compound>
Cc1cc2c(cc1Cc1ccc(C(=O)NCc3ccc(CNc4ncccn4)cc3)o1)C(C)(C)CCC2(C)C [Compound 137]

>  <Rat female pmol/min/mg 1 μM [pmol/min/mg]>
182

$$$$
>  <compound>
COc1cc2c(cc1Cc1ccc(C(=O)NCc3cccc(CNc4ccnc(NC[C@H]5CCCO5)n4)c3)o1)C(C)(C)CCC2(C)C (stereo in doubt) [Compound 199]

>  <Rat female pmol/min/mg 1 μM [pmol/min/mg]>
181

$$$$
>  <compound>
Cc1cc2c(cc1Cc1ccc(C(=O)NCc3cccc(CNc4ccnc(NC[C@@H]5CCCO5)n4)c3)o1)C(C)(C)CCC2(C)C [Compound 136]

>  <Rat female pmol/min/mg 1 μM [pmol/min/mg]>
271

$$$$

###

# measured_on: human GnRH receptor (Homo sapiens, UniProt P30968)
# Construct: expressed in transfected cells; host or cells: HEK 293 (hGnRH-R/293, from Dr. Stuart Sealfon)
# Sequence (P30968 1-328): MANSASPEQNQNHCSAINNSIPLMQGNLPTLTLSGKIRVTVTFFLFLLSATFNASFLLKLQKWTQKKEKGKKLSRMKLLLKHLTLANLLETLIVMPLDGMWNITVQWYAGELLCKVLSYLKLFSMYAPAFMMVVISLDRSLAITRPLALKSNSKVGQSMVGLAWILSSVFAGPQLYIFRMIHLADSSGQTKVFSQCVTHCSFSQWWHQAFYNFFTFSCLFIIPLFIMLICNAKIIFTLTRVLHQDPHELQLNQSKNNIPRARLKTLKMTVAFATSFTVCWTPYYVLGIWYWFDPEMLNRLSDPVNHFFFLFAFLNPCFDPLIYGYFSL
# protocol: Radioligand binding, 125I-GnRH-A displacement, membranes of HEK 293 cells with human GnRH receptor
# condition_context: read-out: hGnRH IC50

>  <molecule>
COc1cc(CO)cc(OC)c1NC(=O)c1ccc(Cc2cc3c(cc2C)C(C)(C)CCC3(C)C)o1 [Compound 159]

>  <comparator>
=

>  <IC50 [µM]>
0.045

$$$$
>  <molecule>
COc1cc(OC)nc(NCC2CCC(CNC(=O)c3ccc(Cc4cc5c(cc4C)C(C)(C)CCC5(C)C)o3)CC2)n1 (stereo not drawn) [Compound 71]

>  <comparator>
=

>  <IC50 [µM]>
2

$$$$
>  <molecule>
COc1cc(OC)c(NC(=O)c2ccc(Cc3c(OC)cc(C)c(Cl)c3C)o2)c(OC)c1 [Compound 299]

>  <comparator>
=

>  <IC50 [µM]>
0.08

$$$$
>  <molecule>
COc1cc(OC)c(NC(=O)c2ccc(Cc3c(OC)ccc(OC)c3OC)o2)c(OC)c1 [Compound 209]

>  <comparator>
=

>  <IC50 [µM]>
4.38

$$$$
>  <molecule>
COc1ccc(OC)c(Cc2ccc(C(=O)Nc3c(OC)cccc3OC)o2)c1 [Compound 202]

>  <comparator>
=

>  <IC50 [µM]>
1.42

$$$$
>  <molecule>
COc1cc(OC)c(NC(=O)c2ccc(Cc3c(C)cc(C)cc3C)o2)c(OC)c1 [Compound 168]

>  <comparator>
=

>  <IC50 [µM]>
0.23

$$$$
>  <molecule>
Cc1cc2c(cc1Cc1ccc(C(=O)N3CCC(CNc4nccc(NCC5CCCO5)n4)CC3)o1)C(C)(C)CCC2(C)C (stereo not drawn) [Compound 86.5]

>  <comparator>
=

>  <IC50 [µM]>
2.57

$$$$
>  <molecule>
Cc1cc2c(cc1Cc1ccc(C(=O)NCc3ccc(F)cc3F)o1)C(C)(C)CCC2(C)C [Compound 52]

>  <comparator>
=

>  <IC50 [µM]>
0.28

$$$$
>  <molecule>
COc1cccc(OC)c1NC(=O)c1ccc(Cc2c(C)c(C)c(Br)c(C)c2C)o1 [Compound 226]

>  <comparator>
=

>  <IC50 [µM]>
0.24

$$$$
>  <molecule>
Cc1cc2c(cc1Cc1ccc(C(=O)NCC3CCC(CNc4nccc(NCC5CCCO5)n4)CC3)o1)C(C)(C)CCC2(C)C (stereo not drawn) [Compound 92]

>  <comparator>
=

>  <IC50 [µM]>
0.08

$$$$
>  <molecule>
Cc1cc2c(cc1Cc1ccc(C(=O)NCCCN3CCOCC3)o1)C(C)(C)CCC2(C)C [Compound 83]

>  <comparator>
=

>  <IC50 [µM]>
0.62

$$$$
>  <molecule>
Cc1cc2c(cc1Cc1ccc(C(=O)NCC3CCCC(CNc4ncccn4)C3)o1)C(C)(C)CCC2(C)C (stereo not drawn) [Compound 138]

>  <comparator>
=

>  <IC50 [µM]>
0.2

$$$$
>  <molecule>
COc1cc(OC)c(NC(=O)c2ccc(Cc3cc(C)cc4c3OCCC4(C)C)o2)c(OC)c1 [Compound 190.5]

>  <comparator>
=

>  <IC50 [µM]>
0.35

$$$$
>  <molecule>
Cc1cc2c(cc1Cc1ccc(C(=O)NCCCNC(=O)c3ccc(Cc4cc5c(cc4C)C(C)(C)CCC5(C)C)o3)o1)C(C)(C)C=CC2(C)C [Compound 27]

>  <comparator>
>

>  <IC50 [µM]>
10

$$$$
>  <molecule>
Cc1cc2c(cc1Cc1ccc(C(=O)Nc3ccc(S(=O)(=O)Nc4nccs4)cc3)o1)C(C)(C)CCC2(C)C [Compound 29]

>  <comparator>
=

>  <IC50 [µM]>
1.42

$$$$
>  <molecule>
COc1cc(OC)c(NC(=O)c2ccc(Cc3c(C)c(C)c(C)c(C)c3C)o2)c(OC)c1 [Compound 197]

>  <comparator>
=

>  <IC50 [µM]>
1.04

$$$$
>  <molecule>
Cc1cc2c(cc1Cc1ccc(C(=O)NC[C@H]3CC[C@H](C(N)=O)CC3)o1)C(C)(C)CCC2(C)C [Compound 156]

>  <comparator>
=

>  <IC50 [µM]>
0.024

$$$$
>  <molecule>
COCCNc1nccc(NCc2cccc(CNC(=O)c3ccc(Cc4cc5c(cc4C)C(C)(C)CCC5(C)C)o3)c2)n1 [Compound 154]

>  <comparator>
=

>  <IC50 [µM]>
0.15

$$$$
>  <molecule>
Cc1cc2c(cc1Cc1ccc(C(=O)NCc3cccnc3)o1)C(C)(C)CCC2(C)C [Compound 43]

>  <comparator>
=

>  <IC50 [µM]>
0.32

$$$$
>  <molecule>
CCN(CC)CCOC(=O)c1ccc(NC(=O)c2ccc(Cc3cc4c(cc3C)C(C)(C)CCC4(C)C)o2)cc1 [Compound 135]

>  <comparator>
=

>  <IC50 [µM]>
1.44

$$$$
>  <molecule>
Cc1cc2c(cc1Cc1ccc(C(=O)NC[C@H]3CC[C@H](C(=O)O)CC3)o1)C(C)(C)CCC2(C)C [Compound 12]

>  <comparator>
=

>  <IC50 [µM]>
0.23

$$$$
>  <molecule>
Cc1cc2c(cc1Cc1ccc(C(=O)NCc3cccc(CNc4ncccn4)c3)o1)C(C)(C)CCC2(C)C [Compound 106]

>  <comparator>
=

>  <IC50 [µM]>
2

$$$$
>  <molecule>
COc1cc(OC)c(NC(=O)c2ccc(Cc3cc4c(cc3OC)C(C)(C)CCC4(C)C)o2)c(OC)c1 [Compound 169]

>  <comparator>
=

>  <IC50 [µM]>
0.012

$$$$
>  <molecule>
COc1cc(OC)c(NC(=O)c2ccc(Cc3cc4c(cc3C)C(C)(C)CCC4(C)C)o2)c(OC)c1 [Compound 134]

>  <comparator>
=

>  <IC50 [µM]>
0.006

$$$$
>  <molecule>
Cc1cc2c(cc1Cc1ccc(C(N)=O)o1)C(C)(C)CCC2(C)C [AXC- 06675]

>  <comparator>
=

>  <IC50 [µM]>
2

$$$$
>  <molecule>
Cc1cc2c(cc1Cc1ccc(C(=O)NCc3cccc(CNC(=N)N)c3)o1)C(C)(C)CCC2(C)C [Compound 24]

>  <comparator>
=

>  <IC50 [µM]>
0.55

$$$$
>  <molecule>
CCN(CC)C(=O)c1ccc(Cc2cc3c(cc2C)C(C)(C)CCC3(C)C)o1 [Compound 238]

>  <comparator>
=

>  <IC50 [µM]>
7.83

$$$$
>  <molecule>
Cc1cc2c(cc1Cc1ccc(C(=O)Nc3ccccc3)o1)C(C)(C)CCC2(C)C [Compound 195]

>  <comparator>
=

>  <IC50 [µM]>
0.32

$$$$
>  <molecule>
Cc1cnc(CNC(=O)c2ccc(Cc3cc4c(cc3C)C(C)(C)CCC4(C)C)o2)cn1 [Compound 13]

>  <comparator>
=

>  <IC50 [µM]>
0.11

$$$$
>  <molecule>
Cc1ccc([C@H](C)NC(=O)c2ccc(Cc3cc4c(cc3C)C(C)(C)CCC4(C)C)o2)cc1 [Compound 123]

>  <comparator>
=

>  <IC50 [µM]>
0.51

$$$$
